Molecular target: sigma receptors (Rattus norvegicus, UniProt Q9R0C9)
Construct: a preparation of rat brain membrane; from tissue; host or cells: rat brain membranes
Sequence (Q9R0C9 whole entry): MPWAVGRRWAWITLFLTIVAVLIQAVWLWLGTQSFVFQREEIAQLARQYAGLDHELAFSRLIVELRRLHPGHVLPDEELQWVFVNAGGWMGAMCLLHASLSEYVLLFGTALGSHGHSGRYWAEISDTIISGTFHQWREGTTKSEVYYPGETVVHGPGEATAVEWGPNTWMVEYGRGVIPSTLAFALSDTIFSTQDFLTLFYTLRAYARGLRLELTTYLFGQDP
Test: In vitro binding to sigma receptors with (+)[^3 H]SKF10.047
Settings: ratio to haloperidol, second series, rat brain membranes, [^3 H]SKF10.047
Measured metric: IC50, haloperidol / IC50, example

C(=C\c1ccccc1)/CC1CCCCN1CCc1ccccc1 (stereo not shown) [Example 2A.5, (E)-2-cinnamyl-1-(phenethyl)piperidine] : 1.0

A = Fc1ccc(/C=C/CC2CCCN2CC2CC2)cc1 (stereo not shown)
B = C(=C\c1ccccc1)/CC1CCCCN1CC1CCC1 (stereo not shown)
C = C(=C\c1ccccc1)/CC1CCCN1CC1CC1 (single isomer, unassigned; (-))
*Q* // sort entries: IC50, haloperidol / IC50, example, high to low List each label, following the requested order.
*A* B, C, A
(B: 2.3, C: 1.6, A: 1.1)
